Conditions: in acetonitrile, 293.15 K
Measurement name: solubility (mole fraction)

Per the records, this compound ( c1ccc(-c2cc3ccccc3[nH]2)cc1 ) has solubility (mole fraction) equal to 0.0164

###

Details: in toluene, 334.15 K
Measurement name: solubility (mole fraction)
Answer using only a numeral; do not append any unit.

Per the records, this compound ( c1ccc(-c2cc3ccccc3[nH]2)cc1 ) has solubility (mole fraction) equal to 0.0342

###

Details: in ethanol, 308.55 K
Measurement name: solubility (mole fraction)
Answer using only a numeral; do not append any unit.

Per the records, this compound ( c1ccc(-c2cc3ccccc3[nH]2)cc1 ) has solubility (mole fraction) equal to 0.014

###

Settings: in n-butanol, 323.25 K
Measurement name: solubility (mole fraction)
Answer using only a numeral; do not append any unit.

Per the records, this molecule ( c1ccc(-c2cc3ccccc3[nH]2)cc1 ) has solubility (mole fraction) equal to 0.0241

###

Details: in acetonitrile, 329.35 K
Measurement name: solubility (mole fraction)
Answer using only a numeral; do not append any unit.

Per the records, this compound ( c1ccc(-c2cc3ccccc3[nH]2)cc1 ) has solubility (mole fraction) equal to 0.0533

###

Conditions: in n-propanol, 302.45 K
Measurement name: solubility (mole fraction)
Answer using only a numeral; do not append any unit.

Per the records, this molecule ( c1ccc(-c2cc3ccccc3[nH]2)cc1 ) has solubility (mole fraction) equal to 0.012

###

Conditions: in n-butanol, 302.45 K
Measurement name: solubility (mole fraction)
Answer using only a numeral; do not append any unit.

Per the records, this compound ( c1ccc(-c2cc3ccccc3[nH]2)cc1 ) has solubility (mole fraction) equal to 0.0141

###

Settings: in sec-butanol, 308.55 K
Measurement name: solubility (mole fraction)
Answer using only a numeral; do not append any unit.

Per the records, this compound ( c1ccc(-c2cc3ccccc3[nH]2)cc1 ) has solubility (mole fraction) equal to 0.014

###

Settings: in acetone, 318.65 K
Measurement name: solubility (mole fraction)
Answer using only a numeral; do not append any unit.

Per the records, this compound ( c1ccc(-c2cc3ccccc3[nH]2)cc1 ) has solubility (mole fraction) equal to 0.15

###

Details: in acetonitrile, 318.65 K
Measurement name: solubility (mole fraction)
Answer using only a numeral; do not append any unit.

Per the records, this compound ( c1ccc(-c2cc3ccccc3[nH]2)cc1 ) has solubility (mole fraction) equal to 0.038

###

Conditions: in toluene, 318.65 K
Measurement name: solubility (mole fraction)
Answer using only a numeral; do not append any unit.

Per the records, this molecule ( c1ccc(-c2cc3ccccc3[nH]2)cc1 ) has solubility (mole fraction) equal to 0.0222

###

Details: in toluene, 293.15 K
Measurement name: solubility (mole fraction)
Answer using only a numeral; do not append any unit.

Per the records, this molecule ( c1ccc(-c2cc3ccccc3[nH]2)cc1 ) has solubility (mole fraction) equal to 0.0101

###

Conditions: in 1,4-dioxane, 299.15 K
Measurement name: solubility (mole fraction)
Answer using only a numeral; do not append any unit.

Per the records, this compound ( c1ccc(-c2cc3ccccc3[nH]2)cc1 ) has solubility (mole fraction) equal to 0.0625

###

Details: in 1,2-dichloroethane, 313.15 K
Measurement name: solubility (mole fraction)
Answer using only a numeral; do not append any unit.

Per the records, this compound ( c1ccc(-c2cc3ccccc3[nH]2)cc1 ) has solubility (mole fraction) equal to 0.0325

###

Conditions: in 1,4-dioxane, 324.05 K
Measurement name: solubility (mole fraction)
Answer using only a numeral; do not append any unit.

Per the records, this compound ( c1ccc(-c2cc3ccccc3[nH]2)cc1 ) has solubility (mole fraction) equal to 0.172

###

Conditions: in sec-butanol, 323.25 K
Measurement name: solubility (mole fraction)
Answer using only a numeral; do not append any unit.

Per the records, this molecule ( c1ccc(-c2cc3ccccc3[nH]2)cc1 ) has solubility (mole fraction) equal to 0.022

###

Conditions: in n-propanol, 334.05 K
Measurement name: solubility (mole fraction)
Answer using only a numeral; do not append any unit.

Per the records, this compound ( c1ccc(-c2cc3ccccc3[nH]2)cc1 ) has solubility (mole fraction) equal to 0.0269

###

Conditions: in MTBE, 293.15 K
Measurement name: solubility (mole fraction)
Answer using only a numeral; do not append any unit.

Per the records, this molecule ( c1ccc(-c2cc3ccccc3[nH]2)cc1 ) has solubility (mole fraction) equal to 0.0351

###

Conditions: in acetone, 308.95 K
Measurement name: solubility (mole fraction)
Answer using only a numeral; do not append any unit.

Per the records, this molecule ( c1ccc(-c2cc3ccccc3[nH]2)cc1 ) has solubility (mole fraction) equal to 0.132

###

Details: in ethyl acetate, 313.65 K
Measurement name: solubility (mole fraction)
Answer using only a numeral; do not append any unit.

Per the records, this compound ( c1ccc(-c2cc3ccccc3[nH]2)cc1 ) has solubility (mole fraction) equal to 0.0951

###

Details: in toluene, 329.35 K
Measurement name: solubility (mole fraction)
Answer using only a numeral; do not append any unit.

Per the records, this compound ( c1ccc(-c2cc3ccccc3[nH]2)cc1 ) has solubility (mole fraction) equal to 0.0298

###

Settings: in n-propanol, 329.05 K
Measurement name: solubility (mole fraction)
Answer using only a numeral; do not append any unit.

Per the records, this molecule ( c1ccc(-c2cc3ccccc3[nH]2)cc1 ) has solubility (mole fraction) equal to 0.0233

###

Conditions: in ethyl acetate, 318.65 K
Measurement name: solubility (mole fraction)
Answer using only a numeral; do not append any unit.

Per the records, this compound ( c1ccc(-c2cc3ccccc3[nH]2)cc1 ) has solubility (mole fraction) equal to 0.101

###

Details: in n-propanol, 338.55 K
Measurement name: solubility (mole fraction)
Answer using only a numeral; do not append any unit.

Per the records, this compound ( c1ccc(-c2cc3ccccc3[nH]2)cc1 ) has solubility (mole fraction) equal to 0.03

###

Details: in methanol, 318.25 K
Measurement name: solubility (mole fraction)
Answer using only a numeral; do not append any unit.

Per the records, this compound ( c1ccc(-c2cc3ccccc3[nH]2)cc1 ) has solubility (mole fraction) equal to 0.0107

###

Settings: in 1,4-dioxane, 318.65 K
Measurement name: solubility (mole fraction)
Answer using only a numeral; do not append any unit.

Per the records, this molecule ( c1ccc(-c2cc3ccccc3[nH]2)cc1 ) has solubility (mole fraction) equal to 0.145

###

Settings: in 1,2-dichloroethane, 329.05 K
Measurement name: solubility (mole fraction)
Answer using only a numeral; do not append any unit.

Per the records, this compound ( c1ccc(-c2cc3ccccc3[nH]2)cc1 ) has solubility (mole fraction) equal to 0.0498

###

Conditions: in THF, 289.05 K
Measurement name: solubility (mole fraction)
Answer using only a numeral; do not append any unit.

Per the records, this compound ( c1ccc(-c2cc3ccccc3[nH]2)cc1 ) has solubility (mole fraction) equal to 0.187

###

Conditions: in MTBE, 313.65 K
Measurement name: solubility (mole fraction)
Answer using only a numeral; do not append any unit.

Per the records, this compound ( c1ccc(-c2cc3ccccc3[nH]2)cc1 ) has solubility (mole fraction) equal to 0.0452

###

Conditions: in methanol, 334.05 K
Measurement name: solubility (mole fraction)
Answer using only a numeral; do not append any unit.

Per the records, this compound ( c1ccc(-c2cc3ccccc3[nH]2)cc1 ) has solubility (mole fraction) equal to 0.016

###

Conditions: in isopropanol, 329.05 K
Measurement name: solubility (mole fraction)
Answer using only a numeral; do not append any unit.

Per the records, this molecule ( c1ccc(-c2cc3ccccc3[nH]2)cc1 ) has solubility (mole fraction) equal to 0.0185

###

Conditions: in ethanol, 323.25 K
Measurement name: solubility (mole fraction)
Answer using only a numeral; do not append any unit.

Per the records, this molecule ( c1ccc(-c2cc3ccccc3[nH]2)cc1 ) has solubility (mole fraction) equal to 0.0187

###

Details: in ethyl acetate, 289.05 K
Measurement name: solubility (mole fraction)

Per the records, this molecule ( c1ccc(-c2cc3ccccc3[nH]2)cc1 ) has solubility (mole fraction) equal to 0.0634

###

Settings: in acetone, 303.95 K
Measurement name: solubility (mole fraction)

Per the records, this compound ( c1ccc(-c2cc3ccccc3[nH]2)cc1 ) has solubility (mole fraction) equal to 0.122

###

Settings: in MTBE, 334.15 K
Measurement name: solubility (mole fraction)
Answer using only a numeral; do not append any unit.

Per the records, this compound ( c1ccc(-c2cc3ccccc3[nH]2)cc1 ) has solubility (mole fraction) equal to 0.0596

###

Conditions: in MTBE, 289.05 K
Measurement name: solubility (mole fraction)
Answer using only a numeral; do not append any unit.

Per the records, this compound ( c1ccc(-c2cc3ccccc3[nH]2)cc1 ) has solubility (mole fraction) equal to 0.0337

###

Details: in sec-butanol, 318.25 K
Measurement name: solubility (mole fraction)
Answer using only a numeral; do not append any unit.

Per the records, this molecule ( c1ccc(-c2cc3ccccc3[nH]2)cc1 ) has solubility (mole fraction) equal to 0.0182

###

Settings: in THF, 324.05 K
Measurement name: solubility (mole fraction)
Answer using only a numeral; do not append any unit.

Per the records, this molecule ( c1ccc(-c2cc3ccccc3[nH]2)cc1 ) has solubility (mole fraction) equal to 0.24

Reference for the values: BigSolDB 2.1
